Reference source for all entries: patent US20220064329A1

- MEASURED_ON: T1, recombinant human activated Factor VII (FVIIa) (human, UniProt P08709 61-212; P08709 213-466, ten glutamate residues of the Gla domain may be gamma-carboxylated)
- T1 construct: chains tethered by a disulfide bond; also called Factor VIIa; rFVIIa
- T1 sequence 1: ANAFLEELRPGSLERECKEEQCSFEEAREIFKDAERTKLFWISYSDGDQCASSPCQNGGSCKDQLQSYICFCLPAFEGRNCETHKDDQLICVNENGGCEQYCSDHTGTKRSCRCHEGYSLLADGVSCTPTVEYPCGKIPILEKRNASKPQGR
- T1 sequence 2: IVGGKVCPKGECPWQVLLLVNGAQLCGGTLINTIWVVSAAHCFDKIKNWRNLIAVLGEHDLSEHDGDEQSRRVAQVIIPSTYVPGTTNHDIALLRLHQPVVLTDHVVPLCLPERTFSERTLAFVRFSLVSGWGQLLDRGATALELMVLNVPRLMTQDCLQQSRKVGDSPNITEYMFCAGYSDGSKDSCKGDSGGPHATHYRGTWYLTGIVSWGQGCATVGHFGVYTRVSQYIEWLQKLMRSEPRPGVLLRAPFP
- ASSAY_NOTES: BLI (Fortebio)
- Protocol: All steps were performed in running buffer (20 mM HEPES buffer (pH 7.4), 150 mM NaCl, 5 mM CaCl2, 0.03% Tween 20, 1 mg/ml IgG-free BSA) at […] Antibodies were captured on anti-human tips (AHC, Fortebio) for 3 min at a concentration of 10 ug/ml. […] Following this, association was monitored for 3 min using four different concentrations of VIIa (25 nm, 50 nM, 100 nM, and 200 nM), followed by a 3 mi dissociation. Sensorgrams were analysed using Fortebio data analysis software.
Some binders, each annotated with its measured Kd.

| BINDER | Kd (nM) |
| --- | --- |
| VH SEQ ID NO 538 / VL SEQ ID NO 310 (antibody, IgG4, V domains shown, humanized 11F2; IgG4 S228P/kappa) VH: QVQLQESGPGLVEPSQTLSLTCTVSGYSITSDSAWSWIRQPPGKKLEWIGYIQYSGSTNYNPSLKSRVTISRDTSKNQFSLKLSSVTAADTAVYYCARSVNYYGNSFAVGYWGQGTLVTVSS VL: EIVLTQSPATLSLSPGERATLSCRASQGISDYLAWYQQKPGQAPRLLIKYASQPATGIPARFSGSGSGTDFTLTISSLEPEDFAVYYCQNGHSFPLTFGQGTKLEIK | 2.5 |
| VH SEQ ID NO 578 / VL SEQ ID NO 334 (antibody, IgG4, V domains shown, humanized 11F2; IgG4 S228P/kappa) VH: QVQLQESGPGLVKPSDTLSLTCAVSGYSISSDSAWSWIRQPPGKGLEWIGYIQYSGSTNYNPSLKSRVTMSVDTSKNQFSLKLSSVTALDTAVYYCARSVNYYGNSFAVGPWGQGTLVTVSS VL: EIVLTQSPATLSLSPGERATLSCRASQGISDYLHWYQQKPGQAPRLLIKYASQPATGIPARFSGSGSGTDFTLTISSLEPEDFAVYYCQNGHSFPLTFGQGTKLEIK | 22 |
| VH SEQ ID NO 650 / VL SEQ ID NO 494 (antibody, IgG4, V domains shown, humanized 11F2; IgG4 S228P/kappa) VH: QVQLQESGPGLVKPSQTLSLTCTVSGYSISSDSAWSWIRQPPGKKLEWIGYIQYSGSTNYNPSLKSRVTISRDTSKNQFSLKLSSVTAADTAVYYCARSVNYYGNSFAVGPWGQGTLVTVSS VL: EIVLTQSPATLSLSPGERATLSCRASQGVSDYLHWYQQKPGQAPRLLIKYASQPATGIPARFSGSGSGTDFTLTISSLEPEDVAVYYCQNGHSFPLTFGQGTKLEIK | 1.6 |
| VH SEQ ID NO 618 / VL SEQ ID NO 398 (antibody, IgG4, V domains shown, humanized 11F2; IgG4 S228P/kappa) VH: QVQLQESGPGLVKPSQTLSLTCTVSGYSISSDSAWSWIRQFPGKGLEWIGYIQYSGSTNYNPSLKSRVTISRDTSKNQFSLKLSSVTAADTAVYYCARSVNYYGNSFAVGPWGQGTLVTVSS VL: EIVLTQSPATLSLSPGERATLSCRASQGVSDYLAWYQQKPGEAPRLLIKYTSQPATGIPARFSGSGSGTDFTLTISSLEPEDFAVYYCQNGHSFPLTFGQGTKLEIK | 180 |
| VH SEQ ID NO 586 / VL SEQ ID NO 406 (antibody, IgG4, V domains shown, humanized 11F2; IgG4 S228P/kappa) VH: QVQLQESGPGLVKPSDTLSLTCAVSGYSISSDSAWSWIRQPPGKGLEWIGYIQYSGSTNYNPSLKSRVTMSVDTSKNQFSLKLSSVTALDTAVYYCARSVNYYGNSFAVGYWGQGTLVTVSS VL: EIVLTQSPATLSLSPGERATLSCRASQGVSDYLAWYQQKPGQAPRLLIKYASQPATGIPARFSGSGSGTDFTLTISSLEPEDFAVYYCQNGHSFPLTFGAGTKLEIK | 19 |
